Biological target: Nuclear receptor coactivator 1 (Homo sapiens)
Assay: SRC1 coactivator transcriptional activity inhibitors, confirmation, cell-based, luminescence, quadruplicate (AID 588820);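 further: 0% = DMSO wells and 100% = gossypol 36 µM treated wells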
Conditions: HEK293 GAL4-SRC1 luciferase reporter, at 3.6 µM
Calls of active or inactive are those of the source.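 How the source made its calls: active means mean inhibition above 46.68%, the untreated control wells mean plus 3 SD; inactive means the rest.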
Outcome codes: YES = active, NO = inactive

| compound | cat |
| --- | --- |
| CCN(CC)S(=O)(=O)c1ccc(/C=C/C(=O)Nc2ccc(Br)cc2F)cc1 | NO |
| O=C(O)c1ccc(N/N=C/c2ccc3nccnc3c2)cc1 | NO |
| Cc1c(CC(=O)NCCCC(=O)O)c(=O)oc2cc3c(cc12)CCC(C)(C)O3 | NO |
| CCC1(OC(=O)CN(C)C)C(=O)OCc2c1cc1n(c2=O)Cc2cc3c(N)cccc3nc2-1 (stereo unspecified) | YES |
| CCOc1cccc2cc(C(=O)N3CC(C)OC(C)C3)c(=O)oc12 (stereo unspecified) | NO |
| CCC(NC(=O)NC1CCCCC1)c1ccccc1 (stereo unspecified) | NO |

* * *

The entries below are paired with their reported inhibition.
Experiment: VP16 transactivation inhibitors, counter-screen for SRC1 inhibitor project, cell-based, luminescence, high throughput (AID 588824)
Conditions: cell-based VP16 transactivation luciferase luminescence; at 3.6 µM; stronger effect = higher value

| compound | unit.annotation | inhibition |
| --- | --- | --- |
| CC(C)CCCCCCCCCCCCC(=O)NCC(=O)NC1C(O)C(O)C(Nc2ncnc3nc[nH]c23)OC1C(O)CO (stereo unspecified) | % | 95.4 |
| CCCn1c(=O)c(C(=O)NC(C)c2ccccc2)c(O)c2ccccc21 (stereo unspecified) | % | -9.6 |
| COc1ccc(Cn2c(-c3ccc(C)cc3)c[n+]3ccccc23)cc1 | % | 54.5 |
| Cc1ccc2c(C)nc(Nc3nc(CSc4nc5ccccc5[nH]4)cc(=O)[nH]3)nc2c1 | % | 17.5 |
| Oc1ccccc1N=Nc1nc(-c2ccccc2)c(-c2ccccc2)[nH]1 | % | 71 |
| Cc1ccc2nc(NC(=O)CCCC(=O)O)sc2c1 | % | 37.5 |
| CCc1ccn2cc(-c3cc(-c4ccccc4)no3)nc2c1 | % | -4.46 |
| COc1ccccc1CNC(=O)Cn1nnnc1CN(C)C(C)C | % | 9.79 |
| CCOc1ccccc1N1CCN(CC(=O)NC(C)c2ccccc2)CC1 (stereo unspecified) | % | 0.65 |
| COc1ccc(-c2cc(=O)oc3c(C)c(O)c(CN(C)C)cc23)cc1 | % | 18.4 |
| CCOC(=O)c1ccccc1OC(=O)NNc1ccccc1 | % | 38.8 |

* * *

Target: Nuclear receptor coactivator 1 (Homo sapiens)
Assay: SRC1 coactivator transcriptional activity inhibitors, confirmation, cell-based, luminescence, quadruplicate (AID 588820);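 further: 0% = DMSO wells and 100% = gossypol 36 µM treated wells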
Conditions: HEK293 GAL4-SRC1 luciferase reporter, at 3.6 µM, stronger effect = higher value
observed.property: inhibition (%)

| compound | observed.property | unit.annotation | observed.result |
| --- | --- | --- | --- |
| O=C(CSc1nnc(Cn2nnc3ccccc32)o1)N(Cc1ccc(F)cc1)c1ccccc1 | inhibition | % | -0.43 |
| Brc1ccc2c(c1)CN1CCCC1=N2 | inhibition | % | 9.34 |
| CCCS(=O)(=O)c1cnc(C2COc3ccccc3O2)nc1N (stereo unspecified) | inhibition | % | 18.9 |
| COc1ccc(C(=O)NNC(=O)C(=O)N2CCCCC2)cc1OC | inhibition | % | -5.24 |
| Cc1ccc(N2CC(C(=O)N3CCC(C(=O)NCCCOC(C)C)CC3)CC2=O)cc1 (stereo unspecified) | inhibition | % | -30.7 |
| Nc1cc2ccncc2c2ccccc12 | inhibition | % | 68.9 |
| Fc1ccc(NC(=S)NNc2ncc(C(F)(F)F)cc2Cl)c(F)c1 | inhibition | % | 15.9 |
| COC(=O)c1cccc(NC(=O)c2ccc[n+]([O-])c2)c1 | inhibition | % | -21.8 |
| Cc1sc2ncnc(N3CCC(C(=O)N(C)CC(=O)Nc4cccc(F)c4)CC3)c2c1C | inhibition | % | 33.5 |
| Cc1oc(-c2ccc(Cl)cc2)nc1CS(=O)CC(=O)NCCCN1CCN(Cc2ccccc2)CC1 (stereo unspecified) | inhibition | % | -11 |
| COc1ccccc1/C=C\C(=O)NCC(=O)N/N=C/c1cccc(OC)c1O | inhibition | % | 26.9 |
